Cited source for all entries: paper PMC8115037

- test_system: complex I (NADH:ubiquinone oxidoreductase), Pd-CI (Paracoccus denitrificans, UniProt A1B487+A1B495+A1B497)
- Construct: gene nuoD; intact purified complex I, His6-tag on C-terminus of Nqo5 (Pd-Nqo5^His6); with multisubunit complex (14 core Nqo subunits plus PdNUMM, PdNUYM, PdN7BM)
- Sequence (A1B496 entry or part of it): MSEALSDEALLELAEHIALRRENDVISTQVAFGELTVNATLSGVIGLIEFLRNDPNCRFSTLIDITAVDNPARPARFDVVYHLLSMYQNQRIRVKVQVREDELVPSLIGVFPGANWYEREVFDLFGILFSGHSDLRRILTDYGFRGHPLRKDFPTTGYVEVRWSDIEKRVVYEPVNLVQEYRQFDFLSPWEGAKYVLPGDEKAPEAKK
- Sequence (A1B495 whole entry): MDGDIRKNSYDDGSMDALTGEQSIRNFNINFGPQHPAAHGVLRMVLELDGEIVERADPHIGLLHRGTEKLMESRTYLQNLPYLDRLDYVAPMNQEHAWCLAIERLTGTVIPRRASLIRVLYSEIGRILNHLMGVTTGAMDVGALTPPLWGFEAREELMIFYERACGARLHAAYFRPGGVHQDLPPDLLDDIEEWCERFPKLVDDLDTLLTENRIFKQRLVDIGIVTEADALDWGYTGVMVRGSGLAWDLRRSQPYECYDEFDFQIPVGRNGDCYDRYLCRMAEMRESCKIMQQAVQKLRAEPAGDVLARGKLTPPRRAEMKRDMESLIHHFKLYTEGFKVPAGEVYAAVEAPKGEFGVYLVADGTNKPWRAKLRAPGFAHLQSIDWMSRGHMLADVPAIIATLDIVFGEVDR
- Sequence (A1B487 whole entry): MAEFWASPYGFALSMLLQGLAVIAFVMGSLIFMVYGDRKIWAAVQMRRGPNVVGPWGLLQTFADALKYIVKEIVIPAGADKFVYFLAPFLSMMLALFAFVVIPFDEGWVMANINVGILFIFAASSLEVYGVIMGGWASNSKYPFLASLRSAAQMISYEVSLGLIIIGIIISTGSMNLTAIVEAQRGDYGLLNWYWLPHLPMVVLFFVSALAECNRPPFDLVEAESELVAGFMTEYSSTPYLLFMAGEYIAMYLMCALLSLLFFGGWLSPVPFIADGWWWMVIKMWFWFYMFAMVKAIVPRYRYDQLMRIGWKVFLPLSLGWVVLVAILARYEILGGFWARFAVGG
- Sequence (A1B498 entry or part of it, further chain): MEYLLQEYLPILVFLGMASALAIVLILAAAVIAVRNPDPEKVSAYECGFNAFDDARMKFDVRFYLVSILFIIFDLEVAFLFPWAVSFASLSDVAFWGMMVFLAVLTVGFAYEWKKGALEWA
- Sequence (A1B497 whole entry): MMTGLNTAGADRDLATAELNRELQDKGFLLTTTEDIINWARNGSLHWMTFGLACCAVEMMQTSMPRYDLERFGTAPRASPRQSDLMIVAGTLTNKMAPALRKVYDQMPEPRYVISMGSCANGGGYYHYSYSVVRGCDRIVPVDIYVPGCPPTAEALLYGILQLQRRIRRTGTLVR
- method_summary: NADH:DQ oxidoreductase assay, detergent-solubilized purified enzyme ([…] in proteoliposomes)
- Type: biochemical
experimental_readout: IC50 (nM)

>>> quantitative_result("C=C(C)[C@H]1Cc2c(ccc3c2O[C@@H]2COc4cc(OC)c(OC)cc4[C@@H]2C3=O)O1")
2230
